The origin of these recorded values is ChEMBL document CHEMBL1138554.

system: Bacillus subtilis; experiment: Antimicrobial activity against Bacillus subtilis at 37 degC after 24 hrs by tube dilution method; format: functional; design: unit not given here
Here, each record is paired with measured -logMIC data.
A bare number is all that is needed in reply.

Worked cases, answers included:
COMPOUND	-logMIC
Clc1cccc(-c2nc3ccccc3[nH]2)c1	1.49
O=C(c1cccnc1)n1c(-c2cccc(Cl)c2)nc2ccccc21	1.5
O=[N+]([O-])c1ccccc1-c1nc2ccccc2[nH]1	1.73
O=C(c1cccnc1)n1c(-c2cccc([N+](=O)[O-])c2)nc2ccccc21	1.44
c1ccc(-c2nc3ccccc3[nH]2)cc1	1.68

Request: Give -logMIC for O=C(O)c1ccccc1-c1nc2ccccc2n1C(=O)c1cccnc1
Result: 1.44

Request: Indicate the recorded -logMIC value for this compound: O=[N+]([O-])c1cccc(-c2nc3ccccc3[nH]2)c1
Result: 1.72

Request: Given O=C(c1cccnc1)n1c(-c2ccccc2[N+](=O)[O-])nc2ccccc21 , respond with its -logMIC.
Result: 1.5

----------
test: Octanol-water partition coefficient, log P of the compound; format: physicochemical
# logP >= 4 gives Criterion met, anything below gives Criterion not met

Sample answers from the record:
COMPOUND	ASSIGNED CATEGORY
O=[N+]([O-])c1ccc(-c2nc3ccccc3[nH]2)cc1	Criterion not met
O=C(c1cccnc1)n1c(-c2cccc(Cl)c2)nc2ccccc21	Criterion met
O=C(O)c1ccccc1-c1nc2ccccc2n1C(=O)c1cccnc1	Criterion met
O=C(c1cccnc1)n1c(-c2cccc([N+](=O)[O-])c2)nc2ccccc21	Criterion met
c1ccc(-c2nc3ccccc3[nH]2)cc1	Criterion not met

Kindly consider the entry below.
Request: Dear colleague, could you confirm whether O=C(c1cccnc1)n1c(-c2ccc(Cl)cc2)nc2ccccc21 has logP at or above 4?
Result: Criterion met

----------
system: Candida albicans; experiment: Antifungal activity against Candida albicans at 37 degC after 48 hrs by tube dilution method; assay type: functional; set-up: unit not given here
MEASURED PARAMETER: -logMIC
Just the number, please, no unit attached.

Request: Consider the compound O=C(c1cccnc1)n1c(-c2cccc(Cl)c2)nc2ccccc21 and give its recorded -logMIC.
Result: 1.73

Request: For O=[N+]([O-])c1ccc(-c2nc3ccccc3[nH]2)cc1 , write its -logMIC.
Result: 1.58

Request: Find the measured -logMIC of O=C(O)c1ccccc1-c1nc2ccccc2n1C(=O)c1cccnc1 and report it.
Result: 1.74

----------
test system: Bacillus subtilis; experiment: Antimicrobial activity against Bacillus subtilis at 37 degC after 24 hrs by tube dilution method; format: functional; parameters: unit not given here
Item-by-item account of -logMIC
Give the value as a plain number.

Request: Give the value of -logMIC reported for the following: O=C(O)c1ccccc1-c1nc2ccccc2[nH]1
Result: 1.7

Request: Using the record for Clc1ccc(-c2nc3ccccc3[nH]2)cc1 , state its measured -logMIC.
Result: 1.51

Request: Give the measured -logMIC for O=C(c1cccnc1)n1c(-c2ccc(Cl)cc2)nc2ccccc21
Result: 1.43

Request: Provide -logMIC value for the following compound: O=C(c1cccnc1)n1c(-c2ccccc2Cl)nc2ccccc21
Result: 1.43

Request: Please report -logMIC for the following compound: Oc1ccc(-c2nc3ccccc3[nH]2)cc1
Result: 1.79

Request: State its -logMIC for this compound: O=[N+]([O-])c1ccc(-c2nc3ccccc3[nH]2)cc1
Result: 1.78

Request: Check the records and state -logMIC for O=C(O)c1cn(C2CC2)c2cc(N3CCNCC3)c(F)cc2c1=O
Result: 3.33

Request: Indicate the recorded -logMIC value for this compound: COc1ccccc1-c1nc2ccccc2n1C(=O)c1cccnc1
Result: 1.42

Request: Provide one value: measured -logMIC of O=C(c1cccnc1)n1c(-c2ccc(O)cc2)nc2ccccc21
Result: 1.57

Request: Consider the compound O=C(c1cccnc1)n1c(-c2ccc([N+](=O)[O-])cc2)nc2ccccc21 . State its measured -logMIC.
Result: 1.44

Request: Provide -logMIC value for the following compound: Clc1ccccc1-c1nc2ccccc2[nH]1
Result: 1.49

Request: Tell me -logMIC reported for COc1ccccc1-c1nc2ccccc2[nH]1
Result: 1.71

----------
assay: Octanol-water partition coefficient, log P of the compound; assay type: physicochemical
MEASURED PARAMETER: logP

Record excerpt, results attached:
COMPOUND	logP
COc1ccccc1-c1nc2ccccc2n1C(=O)c1cccnc1	3.93
COc1ccccc1-c1nc2ccccc2[nH]1	2.86
Clc1ccc(-c2nc3ccccc3[nH]2)cc1	3.63
O=C(c1cccnc1)n1c(-c2ccccc2[N+](=O)[O-])nc2ccccc21	4.13
O=C(c1cccnc1)n1c(-c2ccc(O)cc2)nc2ccccc21	3.89
Clc1cccc(-c2nc3ccccc3[nH]2)c1	3.63
O=[N+]([O-])c1cccc(-c2nc3ccccc3[nH]2)c1	3.07
O=C(c1cccnc1)n1c(-c2ccccc2Cl)nc2ccccc21	4.7

Request: For the compound Clc1ccccc1-c1nc2ccccc2[nH]1 , give its measured logP value.
Result: 3.63

Request: Read the entry O=C(c1cccnc1)n1c(-c2ccc([N+](=O)[O-])cc2)nc2ccccc21 and write its reported logP.
Result: 4.13

Request: Fill in logP for record Oc1ccc(-c2nc3ccccc3[nH]2)cc1
Result: 2.83

Request: Quote logP reported for O=[N+]([O-])c1ccccc1-c1nc2ccccc2[nH]1 please.
Result: 3.07

Request: Note down logP recorded for O=C(O)c1ccccc1-c1nc2ccccc2[nH]1
Result: 2.81

----------
test system: Candida albicans; test: Antifungal activity against Candida albicans at 37 degC after 48 hrs by tube dilution method; format: functional; design: unit not given here
Below, each of the compounds is paired with its reported -logMIC value.
Answer field: number only, no words.

Field: example entries. Status: answers known.
COMPOUND	EXPERIMENTAL SYSTEM	MEASURED PARAMETER	VALUE REPORTED
O=C(c1cccnc1)n1c(-c2ccc(Cl)cc2)nc2ccccc21	Candida albicans	-logMIC	1.73
c1ccc(-c2nc3ccccc3[nH]2)cc1	Candida albicans	-logMIC	1.49
Clc1ccccc1-c1nc2ccccc2[nH]1	Candida albicans	-logMIC	1.26
O=C(c1cccnc1)n1c(-c2ccccc2Cl)nc2ccccc21	Candida albicans	-logMIC	1.73
O=C(c1cccnc1)n1c(-c2ccccc2[N+](=O)[O-])nc2ccccc21	Candida albicans	-logMIC	1.74
O=C(c1cccnc1)n1c(-c2ccc([N+](=O)[O-])cc2)nc2ccccc21	Candida albicans	-logMIC	1.74
O=C(O)c1ccccc1-c1nc2ccccc2[nH]1	Candida albicans	-logMIC	1.48
Clc1ccc(-c2nc3ccccc3[nH]2)cc1	Candida albicans	-logMIC	1.56
O=C(c1cccnc1)n1c(-c2ccc(O)cc2)nc2ccccc21	Candida albicans	-logMIC	1.7
O=[N+]([O-])c1ccccc1-c1nc2ccccc2[nH]1	Candida albicans	-logMIC	1.58

Request: Please give measured -logMIC of the following entry: OC(Cn1cncn1)(Cn1cncn1)c1ccc(F)cc1F [FLUCONAZOLE]
Result: 2.64

Request: Output -logMIC of Oc1ccc(-c2nc3ccccc3[nH]2)cc1
Result: 1.43

Request: Look up and state reported -logMIC for O=C(c1cccnc1)n1c(-c2cccc([N+](=O)[O-])c2)nc2ccccc21
Result: 1.74

Request: Could you please provide reported -logMIC for COc1ccccc1-c1nc2ccccc2[nH]1 ? Thanks!
Result: 1.25

Request: Identify -logMIC associated with the compound Clc1cccc(-c2nc3ccccc3[nH]2)c1
Result: 1.26

Request: Identify the reported -logMIC for the following entry. COc1ccccc1-c1nc2ccccc2n1C(=O)c1cccnc1
Result: 1.72

Request: Please give the documented -logMIC of O=[N+]([O-])c1cccc(-c2nc3ccccc3[nH]2)c1
Result: 1.58
